experiment: Cholesterol binding to HPCD; settings: read-out: Kd of cholesterol for HPCD; 50 mM KPi buffer (pH 7.2) containing 100 mM NaCl at 24 °C
Assay metric: pKd
The value called pKd is obtained by taking minus log10 of the concentration in mol/L.

Q: Entry `CC(C)CCC[C@@H](C)[C@H]1CC[C@H]2[C@@H]3CC=C4C[C@@H](O)CC[C@]4(C)[C@H]3CC[C@]12C` : reported pKd = ?
Ans: 3.27

====

target: purified recombinant CYP46A1 (Homo sapiens, UniProt Q9Y6A2); experiment: CYP46A1 enzyme assay; assay type: biochemical; conditions: 100 μM L-Glu, 20 μM compound
Assay metric: effect of co-incubation with L-Glu on CYP46A1 activation

Molecule	Reading
FC(F)(F)[C@@]1(C#CC2CC2)OCNc2ccc(Cl)cc21 [(S)-6]	abolished
CC1Nc2ccc(Cl)cc2C(C#CC2CC2)(C(F)(F)F)O1 (racemic)	abolished
O=C1Nc2c(O)cc(Cl)cc2C(C#CC2(O)CC2)(C(F)(F)F)O1 (racemic)	lower

====

molecular target: purified recombinant CYP46A1 (Homo sapiens, UniProt Q9Y6A2); assay: CYP46A1 enzyme assay; assay type: biochemical; settings: 60–100 μM compound
Assay metric: CYP46A1 inhibition at the 60–100 μM concentrations

Compound	Reading
O=C1Nc2cc(O)c(Cl)cc2C(C#CC2CC2)(C(F)(F)F)O1 (racemic) [rac-2]	did not inhibit
O=C1Nc2c(O)cc(Cl)cc2C(C#CC2CC2)(C(F)(F)F)O1 (racemic) [rac-1]	did not inhibit
O=C1Nc2c(O)cc(Cl)cc2[C@@](C#CC2CC2)(C(F)(F)F)O1 [(S)-1, (S)-8-hydroxyEFV]	did not inhibit

====

molecular target: UniProtKB Q9Y6A2; experiment: Spectral titrations of cholesterol-bound CYP46A1; assay type: binding; conditions: 20 μM cholesterol, 18 °C
Assay metric: spectral response type, cholesterol-bound CYP46A1

Examples with their reported spectral response type, cholesterol-bound CYP46A1 follow.
Compound	Reading
CCCC#CC1(C(F)(F)F)OC(=O)Nc2ccc(Cl)cc21 (racemic)	reverse type 1-like
O=C1Nc2c(O)cc(Cl)cc2C(C#CC2(O)CC2)(C(F)(F)F)O1 (racemic)	reverse type 1-like
O=C1Nc2c(O)cc(Cl)cc2C(C#CC2CC2)(C(F)(F)F)O1 (racemic)	reverse type 1-like
O=C1CC(C#CC2CC2)(C(F)(F)F)c2cc(Cl)ccc2N1 (racemic)	reverse type 1-like
O=C1Nc2c(O)cc(Cl)cc2[C@@](C#CC2CC2)(C(F)(F)F)O1 [(S)-1, (S)-8-hydroxyEFV]	reverse type 1-like

Please find the next compound below.
Q: Entry O=C1Nc2cc(O)c(Cl)cc2C(C#CC2CC2)(C(F)(F)F)O1 (racemic) : reported spectral response type, cholesterol-bound CYP46A1 = ?
Ans: reverse type 1-like

====

target: substrate-free CYP46A1 (Homo sapiens, UniProt Q9Y6A2); test: Spectral titrations of substrate-free CYP46A1; type: binding; conditions: P450 difference spectrum, 18 °C
Assay metric: spectral response type, substrate-free CYP46A1

Examples with their reported spectral response type, substrate-free CYP46A1 follow.
Compound	Reading
O=C1CC(C#CC2CC2)(C(F)(F)F)c2cc(Cl)ccc2N1 (racemic) [rac-8]	type 1
FC(F)(F)[C@@]1(C#CC2CC2)OCNc2ccc(Cl)cc21 [(S)-6]	type 1
O=C1Cc2ccc(Cl)cc2C(C#CC2CC2)(C(F)(F)F)O1 (racemic) [rac-5]	type 1
CCCC#CC1(C(F)(F)F)OC(=O)Nc2ccc(Cl)cc21 (racemic) [rac-9]	type 1
O=C1Nc2c(O)cc(Cl)cc2C(C#CC2(O)CC2)(C(F)(F)F)O1 (racemic) [rac-3]	type 2

Q: Entry CC1Nc2ccc(Cl)cc2C(C#CC2CC2)(C(F)(F)F)O1 (racemic) [rac-7] : reported spectral response type, substrate-free CYP46A1 = ?
Ans: type 1

Q: Entry O=C1Nc2cc(O)c(Cl)cc2C(C#CC2CC2)(C(F)(F)F)O1 (racemic) [rac-2] : reported spectral response type, substrate-free CYP46A1 = ?
Ans: type 2

Q: Entry O=C1Nc2ccc(Cl)cc2[C@@](C#CC2CC2)(C(F)(F)F)O1 [(S)-EFV, reference compound] : reported spectral response type, substrate-free CYP46A1 = ?
Ans: type 2

Q: Entry O=C1Nc2c(O)cc(Cl)cc2C(C#CC2CC2)(C(F)(F)F)O1 (racemic) [rac-1] : reported spectral response type, substrate-free CYP46A1 = ?
Ans: type 2

Q: Entry O=C1Nc2c(O)cc(Cl)cc2[C@@](C#CC2CC2)(C(F)(F)F)O1 [(S)-1, (S)-8-hydroxyEFV] : reported spectral response type, substrate-free CYP46A1 = ?
Ans: type 2
